Sourced from patent US11066414B2

Recorded IC50 for the following compounds
- TARGET_OR_TEST_SYSTEM: Human Cot (Homo sapiens (Human))
- Sequence (P41279 30-397): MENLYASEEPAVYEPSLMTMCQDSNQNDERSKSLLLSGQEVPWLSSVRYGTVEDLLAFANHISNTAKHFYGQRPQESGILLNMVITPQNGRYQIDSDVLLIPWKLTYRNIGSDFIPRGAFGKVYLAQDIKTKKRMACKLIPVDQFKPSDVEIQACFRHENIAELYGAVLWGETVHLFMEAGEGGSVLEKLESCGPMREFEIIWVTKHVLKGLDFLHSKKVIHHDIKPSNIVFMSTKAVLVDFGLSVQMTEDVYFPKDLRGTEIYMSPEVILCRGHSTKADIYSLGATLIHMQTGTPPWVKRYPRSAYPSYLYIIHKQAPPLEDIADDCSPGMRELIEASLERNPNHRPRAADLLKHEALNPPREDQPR
- ASSAY_NOTES: High Throughput Cot Biochemical Assay
- TEST_SETTINGS: IC50 HTRF, Cot HTRF (TR-FRET) biochemical assay
Just the number please, in nM, no unit attached.

In the examples that follow, each entry is paired with its recorded IC50.
Cc1nc(F)ccc1[C@H](Nc1cc(Cl)c2ncc(C#N)c(NCC(C)(C)C)c2c1)c1cn(C2(C(=O)O)CC2)nn1 ... 3
CC(C)(C)CNc1c(C#N)cnc2c(Cl)cc(N[C@H](c3cn(C4(C(F)(F)F)CC4)nn3)c3cccc4ccncc34)cc12 ... 3

Query compound follows.
Data request, read-out IC50, for CC1(n2cc([C@@H](Nc3cc(Cl)c4ncc(C#N)c(NCC(C)(C)C(F)(F)F)c4c3)c3cccc4ncccc34)nn2)CC1 3

* * *

- TARGET_OR_TEST_SYSTEM: Human Cot (Homo sapiens (Human))
- ASSAY_NOTES: High Throughput Cot Biochemical Assay
- TEST_SETTINGS: IC50 HTRF, Cot HTRF (TR-FRET KinEASE) biochemical assay, 400 μM ATP
In this section we review reported pIC50 values for a set of compounds.
Please express pIC50 as -log10 of the molar concentration.

For the compound shown here, COc1ccc(C(Nc2cc(Cl)c3ncc(C#N)c(NCC(C)(C)C)c3c2)c2cn(C3(C(F)(F)F)CC3)nn2)c(C)n1 (stereo not drawn) , give the reported pIC50. 8.05

Sample COc1ccc([C@H](Nc2cc(Cl)c3ncc(C#N)c(NCC(C)(C)C)c3c2)c2cn(C3(C(F)(F)F)CC3)nn2)cn1 — what was its pIC50? 7.55

# get_value(readout='pIC50', item= CC(C)(CNc1c(C#N)cnc2c(C#N)cc(N[C@H](c3cn(C45CC(C4)C5)nn3)c3cccc4ncccc34)cc12)C(F)(F)F ) 8.70

Query: pIC50; subject: Cc1nc(F)ccc1[C@H](Nc1cc(Cl)c2ncc(C#N)c(NCC(C)(C)C)c2c1)c1nnn(C2(C(F)F)CC2)c1F 8.15

* * *

Measured pIC50 of individual entries
- TARGET_OR_TEST_SYSTEM: UniProt P41279
- ASSAY_NOTES: High Throughput Cot Biochemical Assay
- TEST_SETTINGS: IC50 HTRF, Cot HTRF (TR-FRET) biochemical assay
The value called pIC50 is obtained by taking minus log10 of the concentration in mol/L.

Field request: pIC50 | item: CC(C)(C)CNc1c(C#N)cnc2c(Cl)cc(N[C@H](c3cn(C4(C5CC5)CC4)nn3)c3cccc4ncccc34)cc12 [Example 691] 8.22

Which pIC50 value is on record for N#Cc1cnc2c(Cl)cc(N[C@@H](c3cccnc3)c3c[nH]nn3)cc2c1N[C@@H](CCO)c1ccccc1 [Example 178] ? 8.15

What does the data say about its pIC50? Entry: CC(C)(C)CNc1c(C#N)cnc2c(C#N)cc(N[C@H](c3cn(C4(C(F)(F)F)CC4)nn3)c3cccc4cnccc34)cc12 [Example 470] 8.70

Requested read-out: pIC50. Entry: CCN1CCC(n2cc([C@@H](Nc3cc(Cl)c4ncc(C#N)c(Nc5ccc(F)c(Cl)c5)c4c3)c3sccc3Cl)nn2)CC1 [Example 389] 7.96

Quick one: pIC50 of Cc1ncsc1[C@H](Nc1cc(Cl)c2ncc(C#N)c(NCC(C)(C)C)c2c1)c1cn(C2(C3CC3)CC2)nn1 [Example 702] ? 8.40

Look at this compound and give its reported pIC50. CC(C)n1cc([C@@H](Nc2cc(Cl)c3ncc(C#N)c(Nc4ccc(F)c(Cl)c4)c3c2)c2ccnn2C)nn1 [Example 304] 8.22

Field request: pIC50 | item: [2H]C(Nc1cc(Cl)c2ncc(C#N)c(N[C@H](CC)c3ccccc3)c2c1)(c1cn(C2CC2)nn1)c1ccc(Cl)nc1C (stereo partly shown) [Example 122] 8.22

* * *

- System: TNFα
- ASSAY_NOTES: Cot Monocyte TNFα Cell Based Assay
- TEST_SETTINGS: Homo sapiens, Monocyte, read-out: EC50 TNF, LPS-stimulated human monocytes, TNFα
pEC50: −log10 of the molar value.
The threshold is inclusive: pEC50 of exactly 7 counts as 1; values below receive -1.

[2H]C(Nc1cc(Cl)c2ncc(C#N)c(N[C@@H](CCC#N)c3ccccc3)c2c1)(c1ccc(F)nc1)c1cn(C2CC2)nn1 (stereo partly drawn) ... -1
CC(C)(C)CNc1c(C#N)cnc2c(Cl)cc(N[C@H](c3cn(C4CC4)nn3)c3csc4cnccc34)cc12 ... 1
Cc1nc(F)ccc1[C@H](Nc1cc(Cl)c2ncc(C#N)c(N[C@H](C)C(C)(C)C)c2c1)c1cn(C2(C(F)(F)F)CC2)nn1 ... -1
CC(C)(C)CNc1c(C#N)cnc2c(F)cc(N[C@H](c3cn(C4(C(N)=O)CCC4)nn3)c3cccc4ncsc34)cc12 ... -1

# evaluate next
Is the recorded value of pEC50 equal to or greater than 7 for this molecule? N#Cc1cnc2c(Cl)cc(N[C@@H](c3ccc4c(c3)CNC4)c3c[nH]nn3)cc2c1Nc1ccc(F)c(Cl)c1 -1

* * *

- Tested on: TNFα
- ASSAY_NOTES: Cot Monocyte TNFα Cell Based Assay
- TEST_SETTINGS: Homo sapiens, Monocyte, read-out: EC50 TNF, LPS-stimulated human monocytes, TNFα TR-FRET
MEASURED_ENDPOINT: EC50
Please answer using a numeric value trailed by its unit.

Please review the entries below; each comes with its answer.
COc1cc([C@H](Nc2cc(Cl)c3ncc(C#N)c(NCC(C)(C)C)c3c2)c2cn(C3(C(F)(F)F)CC3)nn2)ccn1 ... 804 nM
Cc1nc(F)ccc1[C@H](Nc1cc(C#N)c2ncc(C#N)c(NCC34CC(C3)C4)c2c1)c1cn(C2(C(F)(F)F)CC2)nn1 ... 247 nM
Cc1nnc(C2(n3cc([C@@H](Nc4cc(Cl)c5ncc(C#N)c(NCC(C)(C)C)c5c4)c4ccc(F)nc4C)nn3)CC2)o1 ... 28 nM
Cc1nc(F)ccc1[C@H](Nc1cc(Cl)c2ncc(C#N)c(NCC(C)(C)C)c2c1F)c1cn(C2(C(F)F)CC2)nn1 ... 1000 nM
CC(C)(CNc1c(C#N)cnc2c(C#N)cc(N[C@H](c3cn(C45CC(C4)C5)nn3)c3cccc4ncccc34)cc12)C(F)(F)F ... 18 nM

Entry CC(C)(C)CNc1c(C#N)cnc2c(Cl)cc(N[C@H](c3cn(C4(C(F)(F)F)CC4)nn3)c3cccc4cnc(Cl)cc34)cc12 has what EC50? 324 nM

May I ask what EC50 has been recorded for [2H]c1c([C@@H](Nc2cc(Cl)c3ncc(C#N)c(NC([2H])([2H])C(C)(C)C)c3c2)c2ccc(F)nc2C)nnn1C1(C(F)F)CC1 ? 34 nM

Item under review: CC1(n2cc([C@@H](Nc3cc(Cl)c4ncc(C#N)c(NCC(C)(C)C(F)(F)F)c4c3)c3ccc(F)c4ncccc34)nn2)CC1 . Reported EC50? 49 nM

Record request: EC50 value, item COC[C@H](C)n1cc([C@@H](Nc2cc(Cl)c3ncc(C#N)c(NCC(C)(C)C)c3c2)c2cccc3c(=O)n(C)ccc23)nn1 36 nM

* * *

- TARGET_OR_TEST_SYSTEM: Human Cot (Homo sapiens (Human))
- ASSAY_NOTES: High Throughput Cot Biochemical Assay
- TEST_SETTINGS: read-out: IC50 HTRF; Cot HTRF (TR-FRET) biochemical assay
Lab note: compare IC50 with 5 nM, writing label 1 if less and label 0 if equal or more.

Reference set (2 entries):
CC(C)(C)N1CCC(n2cc([C@@H](Nc3cc(Cl)c4ncc(C#N)c(Nc5ccc(F)c(Cl)c5)c4c3)c3cncs3)nn2)CC1 ... label 0
Cn1cc([C@H](Nc2cc(Cl)c3ncc(C#N)c(Nc4ccc(F)c(Cl)c4)c3c2)c2cccnc2)nn1 ... label 0

Hi there! Is IC50 for N#CCCC(Nc1c(C#N)cnc2c(Cl)cc(N[C@@H](c3cn(C4CC4)nn3)c3csc4c3CCN(C3COC3)C4)cc12)c1ccccc1 (stereo partly shown) below 5 nM, do you know? label 0

Find out if reported IC50 for N#CCCC(Nc1c(C#N)cnc2c(Cl)cc(N[C@H](c3cn(C4[C@H]5CN(C6COC6)C[C@@H]45)nn3)c3csc4c3CCN(C3COC3)C4)cc12)c1ccccc1 (stereo partly shown) is less than 5 nM label 1

Hello, is IC50 of the following compound strictly smaller than 5 nM? Cc1nc(F)ccc1[C@H](Nc1cc(Cl)c2ncc(C#N)c(NCC(C)(C)C)c2c1)c1cn(C(C)(C)C)nn1 label 1

Quick check: does Cn1cc([C@@H](Nc2cc(Cl)c3ncc(C#N)c(Nc4ccc(F)c(Cl)c4)c3c2)c2cccnc2)nn1 have IC50 under 5 nM? label 1

# check: IC50 < 5 nM for N#Cc1cnc2c(Cl)cc(N[C@@H](c3cccnc3)c3cn(CCN4CCOCC4)nn3)cc2c1Nc1ccc(F)c(Cl)c1 label 0

Hello, is IC50 of the following compound strictly smaller than 5 nM? CC(C)n1cc([C@@H](Nc2cc(Cl)c3ncc(C#N)c(Nc4ccc(F)c(Cl)c4)c3c2)c2ccc3ncsc3c2)nn1 label 0

In plain terms, does Cc1n[nH]c2cccc([C@H](Nc3cc(C#N)c4ncc(C#N)c(NCC(C)(C)C)c4c3)c3cn(C4(C(F)F)CC4)nn3)c12 come in under 5 nM for IC50? label 1

Does the reported IC50 of the following compound sit strictly below 5 nM? C[C@@H](CF)n1cc([C@@H](Nc2cc(Cl)c3ncc(C#N)c(NCC(C)(C)C(F)(F)F)c3c2)c2cccc3c(=O)n(C)ccc23)nn1 label 1

For CC(C)(C)CNc1c(C#N)cnc2c(C#N)cc(N[C@H](c3cn(C4(C(F)F)CC4)nn3)c3cccn4nccc34)cc12 , is the recorded IC50 below the cut-off of 5 nM? label 1

Item Cn1ncc2cccc([C@H](Nc3cc(C#N)c4ncc(C#N)c(NCC(C)(C)C)c4c3)c3cn(C4(C(F)F)CC4)nn3)c21 : IC50 beneath 5 nM, strictly? label 1
